assay: protein stability index of a GFP-peptide fusion (GPS, HEK-293T) (PSI 1-6); higher = more stable; details: treatment: DMSO; c terminus: a fixed tail appended;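 also: 24-mer peptide tiles fused after GFP, lentivirally expressed, FACS-sorted into six equal bins by GFP/DsRed ratio, decoded by Illumina sequencing, PSI is the read-weighted mean bin number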
REPORTED ENDPOINT: protein stability index
Keep it simple and answer with nothing but the number.

[[record]]
query_sequence = "MYILSPAVLRRIQLQPTSIEKEVF [GMPPB]"
reported_endpoint = "protein stability index"
reported_measurement = 2.29

[[record]]
query_sequence = "EFRDDRDLVMALSAGGHGGLLNDT [KCNA4]"
reported_endpoint = "protein stability index"
reported_measurement = 4.06

[[record]]
query_sequence = "EGVDIKNGTEDLPYAMKPIDYYTE [NSDHL]"
reported_endpoint = "protein stability index"
reported_measurement = 4.72

[[record]]
query_sequence = "KLHDFFSYLMDHFIPSSHNDRDFL [PPEF2]"
reported_endpoint = "protein stability index"
reported_measurement = 2.46

[[record]]
query_sequence = "LVTTHHLMVHGNERFIQYLASRNT [SNAP91]"
reported_endpoint = "protein stability index"
reported_measurement = 2.18


# query: protein stability index of entry KVSQWWERLTKQEKRPLFLAPDFD [HACD3]
2.34

Sample LVKQECIKEVVEKREACHCEEVKM [FAN1] — what was its protein stability index?
4.54

Param item = GTRGRLESAQATFQAHRDKYEKLR [ARFIP2] ; retrieve measured protein stability index.
4.27

----------
assay: protein stability index of a GFP-peptide fusion (GPS, HEK-293T) (PSI 1-6); higher = more stable; details: treatment: MLN4924 1 uM, 8 h; c terminus: a fixed tail appended
REPORTED ENDPOINT: protein stability index
No unit in the answer, only the number.

Illustrative cases are given below, each with its answer.
[[record]]
query_sequence = "QYFVVDPMAEYNMPQYILREFKVT [PTPRD]"
reported_measurement = 2.15

[[record]]
query_sequence = "GSRVISHYAGQDATDPFVAFHINK [FADS1]"
reported_measurement = 3.35

[[record]]
query_sequence = "PVRPVSRGCLHSHGLQEGKDLFTQ [CDC25A]"
reported_measurement = 3.21

[[record]]
query_sequence = "EEEAGQTSIEPSKSSIIPFRALKR [ZER1]"
reported_measurement = 5.09

[[record]]
query_sequence = "VSRRAAAAAATVLLRTARVRRECW [SLC19A2]"
reported_measurement = 2.99


What protein stability index value was documented for this sequence, IKMILKMVQLDSIEDLEVTCTWKL [PRAME] ?
2.99

Please give the measured protein stability index for this sequence: YGRDSFVRLLLEFKAEVDPLSDKG [ASB7]
2.37

Quick one: protein stability index of GQPAPPQLLLGRLFRWPDLQHAVE [SMAD6] ?
2.82

----------
assay: protein stability index of a GFP-peptide fusion (GPS, HEK-293T) (PSI 1-6); higher = more stable; conditions: treatment: DMSO; c terminus: a fixed tail appended
Classes (protein stability index): bottom bin = under 3, middle bin = from 3 up to 5, top bin = 5 and over

Please review the entries below; each comes with its answer.
[[record]]
query_sequence = "GPNPSKLIQQFLTLRPDQQLHIFN [CDS2]"
answer_label = "bottom bin"

[[record]]
query_sequence = "VTGYGINGTGDSNDFWRIEVVNRK [POMT2]"
answer_label = "middle bin"

[[record]]
query_sequence = "QCMQPNNIMGIENICELAARMLFS [NR2F2]"
answer_label = "bottom bin"

[[record]]
query_sequence = "GDKASPDQNASTHTPQSSVKTSVP [CLINT1]"
answer_label = "top bin"

[[record]]
query_sequence = "MLGYKRHLALHAASSGDLTCGVCA [PLAGL1]"
answer_label = "bottom bin"


Could you place DSQVSEEVKTRHSEKSQREDEEEE [CHGB] in its proper category? Many thanks.
top bin

Sort into band: PAATEAYGSGDTPGGPCDSTLGGD [TBX6]
top bin

# classify by protein stability index band: GKIIGGMWRDLTDEEKQEYLNEYE [SMARCE1]
middle bin

Category of TLASVPPAATFGADDLVLTLSNPQ [ELF3] , please.
middle bin

Form: Item = ASLHPSVSPGSPPPPLPNHKYNTT [PLAGL1] ; Class = ?
middle bin

Class for LTRPEPVHEFCAGRECQPRWETSS [ADAMTSL2] ?
middle bin

Note: place this sequence into its band. Item: HGIELHSDVVEYAKEKLESFIKNS [PCMTD1]
middle bin
